Target: BoNT/A light chain (recombinant) (Clostridium botulinum, UniProt P0DPI0 1-448)
Sequence (P0DPI0 1-448 limits assumed): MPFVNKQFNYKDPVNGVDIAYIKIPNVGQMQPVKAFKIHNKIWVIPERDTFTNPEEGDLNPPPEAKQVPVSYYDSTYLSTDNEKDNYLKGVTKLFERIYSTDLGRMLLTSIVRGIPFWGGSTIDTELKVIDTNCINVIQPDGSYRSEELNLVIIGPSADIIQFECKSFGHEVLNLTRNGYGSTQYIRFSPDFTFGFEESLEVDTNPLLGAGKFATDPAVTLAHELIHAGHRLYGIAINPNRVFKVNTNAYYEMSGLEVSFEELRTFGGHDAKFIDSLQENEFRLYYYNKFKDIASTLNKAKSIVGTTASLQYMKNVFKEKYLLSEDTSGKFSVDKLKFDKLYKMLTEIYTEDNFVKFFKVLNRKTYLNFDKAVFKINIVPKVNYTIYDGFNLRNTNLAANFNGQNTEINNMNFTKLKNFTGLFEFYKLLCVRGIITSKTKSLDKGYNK
Assay: KinExA, IgG
OBSERVATION_TYPE: pKd
Kindly note that pKd refers to -log10 of the concentration in mol/L and answer with the value alone.

## Input Record request: pKd value, item 6A3M IgG (antibody, V domains shown, IgG converted from scFv) VH: EVQLQQSGAELVKPGASVKLSCKASGYTFTSYWMHWIKQRPGQGLEWIGVIDPSDSYTNYNQKFKGKATLTVDTSSSTAYMQLSSLTSEDSAVYYCATGGNGFFDYWGQGTTLTVSS VL: DIVLTQSPASLAVSLGQRATISCRASESVDYDGDSYMNWYQQKPGQPPKLLIYAASNLESGIPARFSGSGSGTDFTLNIHPVEEEDAATYYCLQSNEAPWTFGGGTKLELK
## Output 8.00
